Provide the recorded inhibition for the entries that follow.
target: Sulfhydryl oxidase 1 (Homo sapiens); assay: inhibition of human sulfhydryl oxidase QSOX1 – biochemical, HyperBlu H2O2 luminescence, HTS, primary screen (AID 1347420); conditions: recombinant QSOX1, HyperBlu H2O2 luminescence; at 12.5 µM; hits give high values; active = any value above zero; also: values above 100% were filed as inconclusive
In all, about 1,300 compounds went through this assay and about 980 (75%) were called active. Roughly 4% stayed inconclusive and do not appear here. The list shows a part of the results.
One number for each entry, in %.

Take a look at these entries with their results.
COMPOUND	TARGET OF ASSAY	UNIT	ASSAY RESULT
CC(C)(C)NCC(O)c1ccc(O)c(CO)c1 (stereo not given)	Sulfhydryl oxidase 1 (Homo sapiens)	%	17.3
O=c1c(-c2ccc(O)cc2)coc2cc(O)ccc12	Sulfhydryl oxidase 1 (Homo sapiens)	%	32.4
C[C@H](NC(CCc1ccccc1)C(=O)O)C(=O)N1CCC[C@H]1C(=O)O (stereo not given in full)	Sulfhydryl oxidase 1 (Homo sapiens)	%	-5.7
Cc1cc2c(cc1Cl)N(C(=O)Nc1ccc(Oc3cccnc3C)nc1)CC2	Sulfhydryl oxidase 1 (Homo sapiens)	%	2.9
CCCNC(=O)NS(=O)(=O)c1ccc(Cl)cc1	Sulfhydryl oxidase 1 (Homo sapiens)	%	0.5

Give inhibition for all compounds that follow.
1. OC(CCN1CCCCC1)(c1ccccc1)C1CCCCC1 (stereo not given)
2. N=S(=O)([O-])Cc1noc2c1C=C[C+]=C2
3. CCCCNc1cc(C(=O)O)cc(S(N)(=O)=O)c1Oc1ccccc1

Response:
-1.3
9.3
-9.6

Give inhibition for all compounds that follow.
1. Cc1cc2c(cc1Cl)N(C(=O)Nc1ccnc3ccccc13)CC2
2. COc1cc2c(cc1OC)C1CC(=O)C(CC(C)C)CN1CC2 (stereo not given)
3. CCCCNc1ccc(C(=O)OCCN(C)C)cc1
4. O=C(O)c1cc2cc(Cc3cccnc3)ccc2o1
5. CCN(CC)CCOC(=O)c1ccc(N)cc1

Response:
1. 52.9
2. 6.3
3. 9.2
4. 12.1
5. -5.5

Give inhibition for all compounds that follow.
1. NC/C=C\C(=O)O
2. CC(=O)c1ccc(S(=O)(=O)NC(=O)NC2CCCCC2)cc1
3. CC[C@H]1CN2CCc3cc(OC)c(OC)cc3[C@@H]2C[C@@H]1C[C@H]1NCCc2cc(OC)c(OC)cc21
4. O=C(O)[C@H]1NCCC[C@H]1C(=O)O
5. O=c1cc(-c2ccc(O)cc2)oc2cc(O)cc(O)c12
6. CNCCC(Oc1ccc(C(F)(F)F)cc1)c1ccccc1 (stereo not given)
7. O=C(c1ccc(F)cc1)C1CCN(CCn2c(=O)[nH]c3ccccc3c2=O)CC1
8. Cc1cccc(/C=C/c2ccccc2)n1

Response:
[7.5, -1.5, 13, -4.7, 88.8, -9.7, -10.7, 3.6]
